System: HCC 2998
protocol text: NCI tumour cell line growth inhibition, 48 h
Active and inactive are the calls of the source. Rule as the data show it: active = GI50 up to about 1.1 µM and inactive = higher.
readout kind: GI50

Query :: Any idea what its GI50 is? The compound is O=S(=O)(c1ccccc1)C(CN1CCCCC1)S(=O)(=O)c1ccccc1
Result :: > 100 µM (inactive)

Query :: Any idea what its GI50 is? The compound is O=c1c(Cc2ccc(Cc3c(O)oc4ccccc4c3=O)cc2)c(O)oc2ccccc12
Result :: > 100 µM (inactive)

---

Test system: TK-10
protocol text: NCI tumour cell line growth inhibition, 48 h
The source made the active and inactive calls. No stated cut-off is given here; in the data, active = GI50 up to about 1.1 µM and inactive = higher.
In this section we review reported GI50 values for a set of compounds.

[
  {
    "compound": "CN(C)c1ccc(O[Si](Oc2ccc(N(C)C)cc2)(Oc2ccc(N(C)C)cc2)Oc2ccc(N(C)C)cc2)cc1",
    "result": "> 100 µM (inactive)"
  }
]

Query :: # query: GI50 | item CC1CC[C@]2(C(=O)O)CCC3(C)C(=CC(=O)C4[C@@]5(C)CCC(=O)C(C)(C)C5CC[C@]43C)[C@@H]2[C@H]1C (stereo not given in full) | system: TK-10
Result :: 28.3 µM (inactive)

Query :: # query: GI50 | item CC1=NC2=Nc3nc(C)cc[n+]3CN2C=C1 | system: TK-10
Result :: 88.3 µM (inactive)

Query :: # query: GI50 | item NC1=Nc2ccccc2Sc2nccn21 | system: TK-10
Result :: 30.6 µM (inactive)

Query :: # query: GI50 | item COc1ccccc1N1CCN(Cn2c(=O)oc3cccnc32)CC1 | system: TK-10
Result :: > 100 µM (inactive)

// provenance: ChEMBL document CHEMBL1201862
